Experimental System: gastrin (Rattus norvegicus)
Construct: The stomach was lowered into a jacketed organ bath containing 40 ml of buffered solution; from tissue; host or cells: isolated perfused whole stomach of immature rats (ca. 21 days old)
Sequence (P30553 1-452): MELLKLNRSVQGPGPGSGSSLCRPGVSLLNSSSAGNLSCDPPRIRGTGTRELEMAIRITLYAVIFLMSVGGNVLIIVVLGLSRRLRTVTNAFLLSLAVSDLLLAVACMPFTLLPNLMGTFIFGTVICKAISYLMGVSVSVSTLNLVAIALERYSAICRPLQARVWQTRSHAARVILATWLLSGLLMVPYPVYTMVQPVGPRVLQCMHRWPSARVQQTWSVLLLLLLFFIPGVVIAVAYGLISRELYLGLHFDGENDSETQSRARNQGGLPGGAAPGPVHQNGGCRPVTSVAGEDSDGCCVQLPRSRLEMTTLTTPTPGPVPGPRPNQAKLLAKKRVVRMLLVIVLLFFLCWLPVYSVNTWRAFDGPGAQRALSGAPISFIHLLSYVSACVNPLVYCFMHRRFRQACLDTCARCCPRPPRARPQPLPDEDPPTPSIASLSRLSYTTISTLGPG
Measurement Notes: gastrin antagonist activity in an immature rat stomach assay (pentagastrin-stimulated acid secretion)
Test Conditions: cumulative pentagastrin dose-response curves after 60 min with drug, read-out: Gastrin pKB (converted)
compounds and their reported Kb
Report the value in nM with no unit label.

Look over these answered cases.
[[record]]
compound = "O=C(NCC12CC3CC(CC(C3)C1)C2)c1cc2ccccc2cc1C(=O)N1CCC[C@@H]1C(=O)O"
recorded_value = 200

[[record]]
compound = "O=C(NCC12CC3CC(CC(C3)C1)C2)c1cc2nc[nH]c2cc1C(=O)N[C@@H](Cc1ccccc1)C(=O)NCc1ccc(F)cc1"
recorded_value = 158

[[record]]
compound = "O=C(O)c1cc(NC(=O)[C@H](Cc2ccccc2F)NC(=O)c2cc3[nH]ccc3cc2C(=O)NCC23CC4CC(CC(C4)C2)C3)cc(C(=O)O)c1"
recorded_value = 2.51

[[record]]
compound = "O=C(O)c1cc(NC(=O)[C@H](Cc2ccc(F)cc2)NC(=O)c2cc3[nH]cnc3cc2C(=O)NCC23CC4CC(CC(C4)C2)C3)cc(C(=O)O)c1"
recorded_value = 1

[[record]]
compound = "O=C(O)c1cc(NC(=O)[C@H](Cc2ccccc2)NC(=O)c2cc3cc[nH]c3cc2C(=O)NCC2CCC(O)CC2)cc(C(=O)O)c1 (single isomer, unassigned)"
recorded_value = 126

[[record]]
compound = "O=C(O)c1cc(NC(=O)[C@H](Cc2c[nH]cn2)NC(=O)c2cc3[nH]cnc3cc2C(=O)NCC23CC4CC(CC(C4)C2)C3)cc(C(=O)O)c1"
recorded_value = 79.4

[[record]]
compound = "Cc1ccc(C(=O)O)cc1NC(=O)[C@H](Cc1ccccc1)NC(=O)c1cc2[nH]cnc2cc1C(=O)NCC12CC3CC(CC(C3)C1)C2"
recorded_value = 126

[[record]]
compound = "O=C(O)c1cc(NC(=O)[C@H](Cc2ccccc2)NC(=O)c2cc3cc[nH]c3cc2C(=O)NCC2CN3CCC2CC3)cc(C(=O)O)c1 (stereo partly drawn)"
recorded_value = 794

[[record]]
compound = "O=C(O)c1cc(NC(=O)[C@H](Cc2ccccc2F)NC(=O)c2cc3cc[nH]c3cc2C(=O)NCC23CC4CC(CC(C4)C2)C3)cc(C(=O)O)c1"
recorded_value = 0.251

[[record]]
compound = "COC(=O)[C@@H](C)NC(=O)c1cc2ccccc2cc1C(=O)NCC12CC3CC(CC(C3)C1)C2"
recorded_value = 1260


### Prompt I am curious: what Kb value has been reported for O=C(O)c1cc(NC(=O)[C@H](Cc2cccc(F)c2)NC(=O)c2cc3[nH]cnc3cc2C(=O)NCC23CC4CC(CC(C4)C2)C3)cc(C(=O)O)c1 ?
### Response 0.2

### Prompt So what's the measured Kb for this one? O=C(NCC12CC3CC(CC(C3)C1)C2)c1cc2[nH]ccc2cc1C(=O)N[C@@H](Cc1ccccc1)C(=O)Nc1cccc(-c2nn[nH]n2)c1
### Response 31.6

---

Experimental System: CCKA (Cavia porcellus)
Construct: The pancreatata were homogenised in 40 ml ice-cold HEPES buffer using a polytron; from tissue; host or cells: pancreas membranes of male Dunkin Hartley guinea-pigs
Sequence (Q63931 whole entry): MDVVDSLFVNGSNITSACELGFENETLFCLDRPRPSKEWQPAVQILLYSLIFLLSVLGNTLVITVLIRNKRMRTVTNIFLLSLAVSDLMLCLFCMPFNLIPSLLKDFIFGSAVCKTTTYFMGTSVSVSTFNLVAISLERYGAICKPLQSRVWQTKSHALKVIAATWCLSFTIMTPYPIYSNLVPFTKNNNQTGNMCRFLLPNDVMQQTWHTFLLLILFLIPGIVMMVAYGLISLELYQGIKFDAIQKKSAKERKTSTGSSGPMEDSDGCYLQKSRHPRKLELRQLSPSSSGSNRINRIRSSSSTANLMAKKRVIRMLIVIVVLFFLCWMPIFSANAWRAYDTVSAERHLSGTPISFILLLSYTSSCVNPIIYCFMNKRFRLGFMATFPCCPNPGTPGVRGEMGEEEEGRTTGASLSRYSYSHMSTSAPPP
Measurement Notes: CCKA radioligand binding assay in guinea-pig pancreas membranes ([125I]-CCK8(S))
Test Conditions: PD134,308 present, 150 minutes at 21±3°, read-out: CCKA pKi (converted)
Assay Endpoint: Ki (nM)
Numbers only here, please. The scale is nM.

# annotated cases, reported Ki shown
[[record]]
given_smiles = "O=C(O)c1cc(NC(=O)[C@H](Cc2c[nH]cn2)NC(=O)c2cc3[nH]cnc3cc2C(=O)NCC23CC4CC(CC(C4)C2)C3)cc(C(=O)O)c1"
result_units = "nM"
recorded_value = 7940

[[record]]
given_smiles = "O=C(O)c1cc(NC(=O)[C@H](Cc2ccc(I)cc2)NC(=O)c2cc3[nH]cnc3cc2C(=O)NCC23CC4CC(CC(C4)C2)C3)cc(C(=O)O)c1"
result_units = "nM"
recorded_value = 794

[[record]]
given_smiles = "O=C(O)c1cccc(NC(=O)[C@H](Cc2ccccc2)NC(=O)c2cc3[nH]cnc3cc2C(=O)NCC23CC4CC(CC(C4)C2)C3)c1"
result_units = "nM"
recorded_value = 1000

[[record]]
given_smiles = "C[C@H](NC(=O)c1cc2[nH]cnc2cc1C(=O)NCC12CC3CC(CC(C3)C1)C2)C(=O)Nc1cc(C(=O)O)cc(C(=O)O)c1"
result_units = "nM"
recorded_value = 5010

[[record]]
given_smiles = "O=C(NCC12CC3CC(CC(C3)C1)C2)c1cc2nc[nH]c2cc1C(=O)N[C@@H](Cc1ccccc1)C(=O)Nc1cccc(S(=O)(=O)NC(=O)C(F)(F)F)c1"
result_units = "nM"
recorded_value = 2000


Let's switch to this molecule now.
### Prompt Bench note: what Ki did O=C(O)c1ccc(Cl)c(NC(=O)[C@H](Cc2ccccc2)NC(=O)c2cc3[nH]cnc3cc2C(=O)NCC23CC4CC(CC(C4)C2)C3)c1 show?
### Response 1260

---

Experimental System: CCKB receptor (Mus musculus)
Construct: The cortex was dissected, weighed and homogenised in 40ml ice-cold buffer; tissue Charles River (supplier of the CD1 mice); host or cells: cerebral cortex membranes of male CD1 mice
Sequence (P56481 whole entry): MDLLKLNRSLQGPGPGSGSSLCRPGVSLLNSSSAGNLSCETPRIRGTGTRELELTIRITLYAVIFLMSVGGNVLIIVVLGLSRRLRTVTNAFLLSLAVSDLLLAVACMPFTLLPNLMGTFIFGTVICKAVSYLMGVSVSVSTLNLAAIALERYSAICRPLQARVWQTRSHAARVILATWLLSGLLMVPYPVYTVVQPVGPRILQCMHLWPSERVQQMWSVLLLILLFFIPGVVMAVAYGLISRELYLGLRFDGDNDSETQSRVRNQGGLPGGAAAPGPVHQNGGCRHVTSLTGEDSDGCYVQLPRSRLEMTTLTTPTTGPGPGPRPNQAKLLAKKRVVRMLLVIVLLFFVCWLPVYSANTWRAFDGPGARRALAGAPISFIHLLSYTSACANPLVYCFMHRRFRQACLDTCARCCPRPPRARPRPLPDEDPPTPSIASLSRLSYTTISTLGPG
Measurement Notes: CCKB receptor radioligand binding assay in mouse cortical membranes ([125I]-CCK8S)
Test Conditions: [125I]-CCK8S 200 pM, 150 min at 21±3°, read-out: CCKB pKi (converted)
Assay Endpoint: Ki (nM)
Hi! Could you send only the number? It should be in nM, unit omitted.

Solved cases below.
[[record]]
molecule = "O=C(O)c1cc(NC(=O)[C@H](Cc2ccccc2)NC(=O)c2cc3cc[nH]c3cc2C(=O)NCC23CC4CC(CC(C4)C2)C3)cc(C(=O)O)c1"
assay_endpoint = "Ki"
recorded_value = 1.26

[[record]]
molecule = "O=C(NCC12CC3CC(CC(C3)C1)C2)c1cc2nc[nH]c2cc1C(=O)N[C@@H](Cc1ccccc1)C(=O)Nc1cc(-c2nn[nH]n2)cc(-c2nn[nH]n2)c1"
assay_endpoint = "Ki"
recorded_value = 3.98

[[record]]
molecule = "C[C@@H](NC(=O)[C@H]1CCCN1C(=O)c1cc2ccccc2cc1C(=O)NCC12CC3CC(CC(C3)C1)C2)C(=O)O"
assay_endpoint = "Ki"
recorded_value = 1580

[[record]]
molecule = "C[C@H](NC(=O)c1cc2cc[nH]c2cc1C(=O)NCC12CC3CC(CC(C3)C1)C2)C(=O)Nc1cc(C(=O)O)cc(C(=O)O)c1"
assay_endpoint = "Ki"
recorded_value = 158

[[record]]
molecule = "COC(=O)[C@H]1CCCN1C(=O)c1cc2ccccc2cc1C(=O)NCC12CC3CC(CC(C3)C1)C2"
assay_endpoint = "Ki"
recorded_value = 1580

[[record]]
molecule = "O=C(O)c1cc(NC(=O)[C@H](Cc2ccc(I)cc2)NC(=O)c2cc3cc[nH]c3cc2C(=O)NCC23CC4CC(CC(C4)C2)C3)cc(C(=O)O)c1"
assay_endpoint = "Ki"
recorded_value = 3.98

[[record]]
molecule = "NC(=O)c1cc(NC(=O)[C@H](Cc2ccccc2)NC(=O)c2cc3[nH]cnc3cc2C(=O)NCC23CC4CC(CC(C4)C2)C3)cc(C(N)=O)c1"
assay_endpoint = "Ki"
recorded_value = 794

[[record]]
molecule = "COC(=O)[C@H](C)NC(=O)c1cc2ccccc2cc1C(=O)NCC12CC3CC(CC(C3)C1)C2"
assay_endpoint = "Ki"
recorded_value = 3160


### Prompt API: value(readout=Ki, system=CCKB receptor (Mus musculus)) for record O=C(O)c1cc(NC(=O)[C@H](Cc2ccccc2)NC(=O)C2Cc3ccccc3CN2C(=O)NCC23CC4CC(CC(C4)C2)C3)cc(C(=O)O)c1 (stereo partly shown)
### Response 20

### Prompt // lookup Ki | system=CCKB receptor (Mus musculus) | key= O=C(O)c1cc(NC(=O)[C@H](Cc2ccccc2F)NC(=O)c2cc3[nH]cnc3cc2C(=O)NCC2CCCCCC2)cc(C(=O)O)c1
### Response 7.94

### Prompt Short answer please: Ki, CCKB receptor (Mus musculus), entry O=C(O)c1cc(NC(=O)C(Cc2ccc(F)cc2F)NC(=O)c2cc3[nH]cnc3cc2C(=O)NCC23CC4CC(CC(C4)C2)C3)cc(C(=O)O)c1 (racemic)
### Response 5.01

### Prompt Lookup: Ki / CCKB receptor (Mus musculus) / O=C(NCC12CC3CC(CC(C3)C1)C2)c1cc2ccccc2cc1C(=O)N1CCC[C@H]1C(=O)O
### Response 3160

### Prompt Requested read-out Ki, target or system CCKB receptor (Mus musculus), entry O=C(NCC12CC3CC(CC(C3)C1)C2)c1cc2ccccc2cc1C(=O)N1CCC[C@@H]1C(=O)O
### Response 398
